# System: CAKI-1 renal
# MEASUREMENT_NOTES: NCI tumour cell line growth inhibition, 48 h
ASSAY_READOUT: log10 TGI (log10 of the value in µM)
The base-10 logarithm of TGI, taken with TGI in µM, is what appears here.

Examples from the recorded data:
NC1CC(=O)c2c(Cl)sc(Cl)c21 (stereo not given) :: 0.79
O=C1C(=O)c2ccccc2-c2ccccc21 :: 0.52
COc1ccc(N(CC(=O)NCCC[Te]c2ccccc2)C(=O)CCSC2=C(C)C(=O)c3ccccc3C2=O)cc1 :: 0.80
O=C1c2cc3c(cc2-c2c1c1ccc(Cl)cc1c(=O)n2C[C@H](O)[C@@H](O)[C@H](O)CO)OCO3 :: -0.40

From here, focus on the item given below.
Problem: Consider the molecule `C=C1C(=O)O[C@@H]2C(=O)[C@@H](C)[C@@H]3C=CC(=O)[C@@]3(C)[C@@H](OC(=O)/C(C)=C\C)[C@H]12` and give its measured log10 TGI.
Result: -0.16
